# EXPERIMENTAL SYSTEM: unphosphorylated c-KIT kinase (uKIT, Seq. ID no. 2) (Homo sapiens)
# Sequence (P10721 with tags, fused parts or gaps): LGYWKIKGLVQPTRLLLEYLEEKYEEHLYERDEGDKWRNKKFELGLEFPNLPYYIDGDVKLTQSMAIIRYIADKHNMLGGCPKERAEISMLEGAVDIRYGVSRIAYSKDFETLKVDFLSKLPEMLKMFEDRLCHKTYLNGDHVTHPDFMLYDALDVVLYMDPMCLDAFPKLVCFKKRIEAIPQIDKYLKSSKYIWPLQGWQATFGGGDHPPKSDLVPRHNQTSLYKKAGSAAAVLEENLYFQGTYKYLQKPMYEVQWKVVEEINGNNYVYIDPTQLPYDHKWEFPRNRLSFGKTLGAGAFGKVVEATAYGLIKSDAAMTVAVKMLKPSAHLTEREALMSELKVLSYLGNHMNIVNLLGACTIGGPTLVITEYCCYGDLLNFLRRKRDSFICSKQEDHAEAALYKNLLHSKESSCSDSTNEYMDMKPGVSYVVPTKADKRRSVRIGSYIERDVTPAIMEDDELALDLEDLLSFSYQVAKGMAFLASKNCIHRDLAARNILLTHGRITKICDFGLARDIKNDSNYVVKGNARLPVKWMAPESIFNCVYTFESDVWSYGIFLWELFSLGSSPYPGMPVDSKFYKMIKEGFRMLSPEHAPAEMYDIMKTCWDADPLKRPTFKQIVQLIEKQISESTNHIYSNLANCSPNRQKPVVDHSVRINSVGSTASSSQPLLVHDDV
# METHOD SUMMARY: biochemical
# SETTINGS: uKIT, enzymatic assay, ATP 2000 μM
ASSAY METRIC: IC50

Use these answered entries as a reference point.
{"SMI": "COC1(C(=O)NC(=O)Nc2ccc(Oc3ccnc(-c4cnc(C)s4)c3)c(C)n2)CC1", "EXPERIMENTAL SYSTEM": "unphosphorylated c-KIT kinase (uKIT, Seq. ID no. 2) (Homo sapiens)", "IC50": "> 1 µM"}
{"SMI": "Cn1cc(-c2cc(Oc3ccc(NC(=O)NC(=O)C4(C#N)CC4)nc3)ccn2)cn1", "EXPERIMENTAL SYSTEM": "unphosphorylated c-KIT kinase (uKIT, Seq. ID no. 2) (Homo sapiens)", "IC50": "> 1 µM"}
{"SMI": "Cc1ncc(-c2cc(Oc3ccc(NC(=O)NC(=O)C4CCOCC4)nc3)ccn2)s1", "EXPERIMENTAL SYSTEM": "unphosphorylated c-KIT kinase (uKIT, Seq. ID no. 2) (Homo sapiens)", "IC50": "0.1 to 1 µM"}

q: What IC50 value was documented for this compound, Cc1nc(NC(=O)NC(=O)CCC2(C(F)(F)F)CC2)ccc1Oc1ccnc(-c2cnn(C)c2)c1 ?
a: < 0.01 µM

q: What value of IC50 has been recorded for this entry: CC(C)(C)C(=O)NC(=O)Nc1ccc(Oc2ccnc(-c3cncs3)c2)cn1
a: > 1 µM

q: Given the entry Cc1nc(NC(=O)NC(=O)C(C)(C)C)ccc1Oc1ccnc(-c2ccc(N3CCN(C)CC3)cc2)c1 , report its measured IC50.
a: 0.01 to 0.1 µM

q: Could you share which IC50 value was measured for COC(C)(C)C(=O)NC(=O)Nc1cc(C)c(Oc2ccnc(-c3cnn(C)c3)c2)cn1 ?
a: 0.01 to 0.1 µM

q: Can you share its IC50? I mean this compound: Cn1cc(-c2cc(Oc3ccc(NC(=O)NC(=O)C4CC4)nc3)ccn2)cn1
a: 0.1 to 1 µM

Provenance of the data: patent US9382228B2
